System: XIP peptide (Xip251-270) binding
assayNotes: XIP fragment 251-270 binding compounds – biochemical, small-molecule microarray, fluorescence 635/667 nm, 0.1 µg/mL protein, primary screen (AID 1182)
details: fluorescent protein binding, 635 nm, higher = more signal, called active from +8 up or from −8 down
Give measured composite z-score for each item. Keep answers brief.
Write the number on its own, no unit after it.

Report composite z-score for C=C(CCCC)C(=O)CC[C@H](OC(=O)c1cccnc1)c1ccc(OCCO)cc1 tested on XIP peptide (Xip251-270) binding.
0.0908

Likewise for [N-]=[N+]=Nc1ccccc1C[C@@]1(C(=O)N2CCCCC2)N=C(c2ccc(OCCCO)cc2)O[C@@H]1c1ccccc1 ?
-0.0034

Likewise for COC(=O)[C@@]1(Cc2ccccc2)[C@H]2c3cc(C(=O)N(C)C)n(Cc4ccc(OC)c(OC)c4)c3C[C@H]2CN1C(=O)c1ccccc1 ?
0.713

Likewise for CO[C@H]1O[C@H](CO)[C@@H](OC(=O)Nc2ccc(Oc3ccccc3)cc2)[C@H](OC(=O)Nc2ccc3c(c2)OCO3)[C@@H]1OC(=O)Nc1ccc2c(c1)OCO2 ?
0.23

Likewise for CCCCN1CC=CC23O[C@@H]4C=CCCOC(=O)C4[C@H]2C(=O)N(CCCCCO)[C@@H]3C1=O (stereo partly drawn) ?
-0.17

Likewise for CN(C)CCCC[C@@H]1NC(=O)[C@H]2C[C@@H](C(=O)NCCCCCN)[C@@H](c3cccc(OCCO)c3)N2C1=O ?
2.88

Likewise for CCCCCCCCCCC(O)C1C=CC2C(=O)NC(=O)C2N1Nc1ccc(Cl)cc1Cl (stereo not drawn) ?
3.34

Likewise for COc1ccc(NN2C(C(O)c3ccc(N(C)C)cc3)C=CC3C(=O)N(C4CCCCC4)C(=O)C32)cc1 (stereo not drawn) ?
1.02
